Values compiled from paper PMC5108032.

# Tested on: Pf (3D7)
# Procedure Details: Ligand efficiency metrics (LE, LLE, LELP), selectivity and fold changes
# Design: species or system Plasmodium falciparum
Measurement Name: LLE (ligand-lipophilicity efficiency)

>  <Molecular String>
Cc1ccc(-c2cc(C(=O)NCCN3CCCC3)c3cc(F)ccc3n2)cc1

>  <Test Target>
Pf (3D7)

>  <Quantitative Result>
3.2

$$$$
>  <Molecular String>
O=C(NCCN1CCCC1)c1cc(-c2ccc(CN3CCOCC3)cc2)nc2ccc(F)cc12

>  <Test Target>
Pf (3D7)

>  <Quantitative Result>
5.9

$$$$
>  <Molecular String>
O=C(NCCN1CCCC1)c1cc(NCCCN2CCOCC2)nc2ccc(F)cc12

>  <Test Target>
Pf (3D7)

>  <Quantitative Result>
5.4

$$$$
>  <Molecular String>
O=C(NCCN1CCCC1)c1cc(NCCCCN2CCOCC2)nc2ccc(Cl)cc12

>  <Test Target>
Pf (3D7)

>  <Quantitative Result>
6.2

$$$$
>  <Molecular String>
O=C(NCCN1CCCC1)c1cc(N2CCC(N3CCOCC3)CC2)nc2ccc(Cl)cc12

>  <Test Target>
Pf (3D7)

>  <Quantitative Result>
4.2

$$$$
>  <Molecular String>
Cc1ccc(-c2cc(C(=O)Nc3cccnc3)c3cc(Br)ccc3n2)cc1

>  <Test Target>
Pf (3D7)

>  <Quantitative Result>
2.6

$$$$
